- method summary: qHTS assay for identifying genotoxic compounds that show differential cytotoxicity against isogenic chicken DT40 cell lines with known DNA damage response pathways - wild type cell line (AID 743012); further: nearly all actives have a fitted effect of over 60% in size; further: potency means the concentration at half of the fitted maximal effect
- assay setup: DT40 wild type chicken cells viability, CellTiter-Glo, 40 h; series mostly up to 68.4 µM
Records with an inconclusive call do not appear. Activity calls are given as the source filed them. The call rests on the fitted dose curve; in most records, active means well fitted cell-killing curve with a large enough effect in the repeat runs; inconclusive means weak or mixed curves, or effect the other way; inactive means no such curve, though single readings can be large or run the other way.
assay endpoint: Potency

Some solved entries appear below for comparison.
>>> result("Cc1cc(O)c(Cl)c(C)c1Cl")
"24.3 µM (active)"
>>> result("NNc1nc(-c2ccccc2)cs1")
"inactive"
>>> result("CN(C)c1ccc(SC#N)cc1")
"27.3 µM (active)"
>>> result("Oc1cccc(-c2c3nc(c(-c4cccc(O)c4)c4ccc([nH]4)c(-c4cccc(O)c4)c4nc(c(-c5cccc(O)c5)c5ccc2[nH]5)CC4)C=C3)c1")
"29.8 µM (active)"
>>> result("CCOc1nc2cccc(C(=O)OC(C)OC(=O)OC3CCCCC3)c2n1Cc1ccc(-c2ccccc2-c2nn[nH]n2)cc1 (stereo unspecified)")
"34.3 µM (active)"

Now take the following compound into account.
Enquiry: For the compound C1CCCC1 , give its measured Potency value.
Return: inactive

* * *

- method summary: qHTS assay to identify small molecule antagonists of the estrogen receptor alpha (ER-alpha) signaling pathway using the BG1 cell line in the presence of 0.1 nM 17-beta-estradiol - cell viability counter screen (AID 1259241); further: nearly all actives have a fitted effect of over 40% in size
- assay setup: VM7Luc4E2 (BG1) viability, CellTiter-Fluor protease, 22 h, 0.1 nM estradiol agonist added; series mostly up to 92.4 µM
Results filed as inconclusive are left out. Active and inactive are the calls of the source. The call rests on the fitted dose curve; in most records, active means well fitted cell-killing curve with a large enough effect in the repeat runs; inconclusive means weak or mixed curves, or effect the other way; inactive means flat fitted curve, though single readings scatter.
Could you please pick one outcome from this set? 1 (yes) for active, 0 (no) for inactive

Before answering, review these 5 worked examples.
>>> class_name("CCCCCCCC/C=C\\CCCCCCCCOCCO")
"1 (yes)"
>>> class_name("c1cc(C(c2ccc(OCC3CO3)cc2)c2ccc(OCC3CO3)cc2)ccc1OCC1CO1 (stereo not drawn)")
"0 (no)"
>>> class_name("CC1(C)CCC(C)(C)c2cc(C(=O)Nc3ccc(C(=O)O)cc3)ccc21")
"0 (no)"
>>> class_name("Clc1ccc(C(Cn2ccnc2)OCc2ccc(Sc3ccccc3)cc2)c(Cl)c1 (stereo not drawn)")
"0 (no)"
>>> class_name("CCc1cc(SCc2sc(-c3ccc(C(F)(F)F)cc3)nc2CN2CCN(c3ccc(OC)cc3)CC2)ccc1OCC(=O)O")
"0 (no)"

Enquiry: Recorded call for CCCCCCCC(=O)[O-].CCCCCCCC(=O)[O-].[Zn+2] ?
Return: 0 (no)

Enquiry: Recorded call for O=C(Nc1cccc(C(F)(F)F)c1)c1cc(Br)cc(Br)c1O ?
Return: 0 (no)

Enquiry: Recorded call for O=[N+]([O-])c1cc([N+](=O)[O-])c2ccc(S(=O)(=O)O)cc2c1O ?
Return: 1 (yes)

* * *

- method summary: qHTS assay to identify small molecule agonists of the retinoic acid receptor (RAR) signaling pathway (AID 1159553); further: on the % scale 0 is the no-effect control and ±100 the full control effect
- assay setup: C3RL4 RARE luciferase reporter, agonist, 6 h; series mostly up to 73.3 µM
- From the text: National Center for Advancing Translational Sciences [NCATS] NIH Chemical Genomics Center [NCGC] U.S. Environmental Protection Agency [EPA] National Institutes of Environmental Health Sciences [NIEHS] National Toxicology Program [NTP] […]
Inconclusive results are not listed. The source made the active and inactive calls. Calls come from the whole dose curve; as a rule, active = well fitted activation curve with a large enough effect in the repeat runs; inconclusive = weak or mixed curves, or effect the other way; inactive = no such curve, though single readings can be large or run the other way.
Could you please pick one outcome from this set? YES for active, NO for inactive

Before answering, review these 5 worked examples.
>>> class_name("CCOc1ccc2nc3cc(N)ccc3c(N)c2c1")
"NO"
>>> class_name("Cc1cc(N)c(S(=O)(=O)O)cc1Cl")
"NO"
>>> class_name("N=C1C=CC(=C(c2ccc(N)cc2)c2ccc(N)cc2)C=C1")
"NO"
>>> class_name("CCCCCCCCCCC=O")
"NO"
>>> class_name("N/C(=N\\N=C\\c1ccc(Cl)cc1)N/N=C/c1ccc(Cl)cc1")
"NO"

Below: the item to evaluate.
Enquiry: Recorded call for CC(C)(C)C1CCC(CC2=C(O)c3ccccc3C(=O)C2=O)CC1 (centres undefined) ?
Return: NO

* * *

- method summary: qHTS assay to identify small molecule antagonists of the estrogen receptor alpha (ER-alpha) signaling pathway - cell viability counter screen (AID 743074);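 further: HEK293 cells carrying ER-alpha-UAS-bla reporter stimulated with 17beta-estradiol; nearly all actives have a fitted effect of over 45% in size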
- assay setup: ERalpha-bla HEK293 viability, CellTiter-Glo luminescence, 18 h; series mostly up to 69.4 µM
Inconclusive results are not listed. Calls of active or inactive are those of the source. Calls come from the whole dose curve.
Could you please pick one outcome from this set? active, inactive

Before answering, review these 2 worked examples.
>>> class_name("Cc1ccc(-n2nc(C(C)(C)C)cc2NC(=O)Nc2ccc(OCCN3CCOCC3)c3ccccc23)cc1")
"inactive"
>>> class_name("CCCC(=O)OC[C@@H](OC(=O)CCC)[C@@H](OC(=O)CCC)[C@H](Cn1c2nc(=O)[nH]c(=O)c-2nc2cc(C)c(C)cc21)OC(=O)CCC")
"inactive"

Enquiry: Recorded call for COc1ccc(-c2ccc3cc(C(=O)O)ccc3c2)cc1C12CC3CC(CC(C3)C1)C2 ?
Return: inactive

Enquiry: Recorded call for CC/C(=C(\c1ccc(O)cc1)c1ccc(OCCN(C)C)cc1)c1ccccc1 ?
Return: active

* * *

- method summary: qHTS RealTime-Glo MT Cell Viability Assay in HEK293 cells - 16 hour (AID 1224872); further: nearly all actives have a fitted effect of over 50% in size
- assay setup: RealTime-Glo luminescence; series mostly up to 76.8 µM
Results filed as inconclusive are left out. Activity calls are given as the source filed them. The call rests on the fitted dose curve; in most records, active means well fitted cell-killing curve with a large enough effect in the repeat runs; inconclusive means weak or mixed curves, or effect the other way; inactive means flat fitted curve, though single readings scatter.
Could you please pick one outcome from this set? active, inactive

>>> class_name("CN(C)[C@@H]1C(=O)C(C(N)=O)=C(O)[C@@]2(O)C(=O)C3=C(O)c4c(O)cccc4C[C@H]3C[C@@H]12")
"inactive"
>>> class_name("O=C(c1ccc(O)cc1O)c1ccc(O)cc1O")
"inactive"
>>> class_name("O=C(Nc1cccc(Cl)c1)OCC#CCCl")
"active"
>>> class_name("N=C1C=CC(=C(c2ccc(N)cc2)c2ccc(N)cc2)C=C1")
"active"

Below: the item to evaluate.
Enquiry: Recorded call for CN(C)[C@@H]1C(=O)C(C(N)=O)=C(O)[C@@]2(O)C(=O)C3=C(O)c4c(O)ccc(Cl)c4[C@@H](O)[C@H]3C[C@@H]12 ?
Return: inactive

* * *

- method summary: qHTS assay to identify small molecule HDAC inhibitors (AID 1259364);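 further: wild-type HCT-116 cells with endogenous class I/II HDAC activity; top concentration of the series differs between compounds; on the % scale 0 is the no-effect control and ±100 the full control effect; nearly all actives have a fitted effect of over 45% in size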
- assay setup: HCT-116 HDAC-Glo I/II luminescence, 2 h; series mostly up to 92.4 µM
Records with an inconclusive call do not appear. Active and inactive are the calls of the source. Calls come from the whole dose curve; as a rule, active = well fitted inhibition curve with a large enough effect in the repeat runs; inconclusive = weak or mixed curves; inactive = flat fitted curve, though single readings scatter.
Could you please pick one outcome from this set? active, inactive

Enquiry: Recorded call for CCOC(=O)O[C@]1(C(=O)OCCl)CC[C@H]2[C@@H]3CCC4=CC(=O)C=C[C@]4(C)[C@H]3[C@@H](O)C[C@@]21C ?
Return: inactive

Enquiry: Recorded call for O=[N+]([O-])c1cc(Cl)c(Cl)c(Cl)c1Cl ?
Return: inactive

Enquiry: Recorded call for CCN(C(=O)c1cc(C)cc(OC[C@H](C)Nc2ccncc2)c1)C(C)C ?
Return: inactive

Enquiry: Recorded call for COC(=O)C1=C(C)NC(C)=C(C(=O)OCCc2ccc(N3CCN(C(c4ccccc4)c4ccccc4)CC3)cc2)C1c1cccc([N+](=O)[O-])c1 (stereo not drawn) ?
Return: inactive

* * *

Recorded measurements of max response, one per entry
- method summary: qHTS RealTime-Glo MT Cell Viability Assay in HEK293 cells - 40 hour (AID 1224874); further: on the % scale 0 is the no-effect control and ±100 the full control effect; nearly all actives have a fitted effect of over 50% in size
- assay setup: RealTime-Glo luminescence; stronger effect = lower value
- Excerpt: U.S. Tox21 Program National Center for Advancing Translational Sciences [NCATS] NIH Chemical Genomics Center [NCGC] U.S. Environmental Protection Agency [EPA] National Institutes of Environmental Health Sciences [NIEHS] National Toxicology Program [NTP] U.S. Food and Drug Administration [FDA] Tox21 Assay Overview: Measure of cell viability is critical in the cell-base assay. Analysis of cell viability is necessary for the characterization of cell responses to cytotoxic drugs and environmental stress. […]
Results filed as inconclusive are left out.
Respond with the bare value in %.

Some solved entries appear below for comparison.
>>> result("CN(C)CCCOC1(Cc2ccccc2)CCCCCC1")
0.0267
>>> result("O=C(O)c1cc(O)c2c(c1)C(=O)c1cccc(O)c1C2=O")
-10.8
>>> result("Cc1cccc(CN2CCN(C(c3ccccc3)c3ccc(Cl)cc3)CC2)c1 (stereo not given)")
-13.7
>>> result("CCCCCCCCCCCCCCCS(=O)(=O)Oc1ccccc1")
-18
>>> result("CO[Si](CCCNc1ccccc1)(OC)OC")
16.6
>>> result("C1CCCC1")
-2.57
>>> result("NC(=O)CC[C@@H]1NC(=O)[C@H](Cc2ccccc2)NC(=O)[C@H](Cc2ccc(O)cc2)NC(=O)CCSSC[C@@H](C(=O)N2CCC[C@H]2C(=O)N[C@@H](CCCN=C(N)N)C(=O)NCC(N)=O)NC(=O)[C@H](CC(N)=O)NC1=O")
0.946
>>> result("CC1(C)CCC(C)(C)c2cc(C(=O)Nc3ccc(C(=O)O)cc3)ccc21")
-14.6

Enquiry: For the molecule CC(=O)OCC(C)OC(C)=O (stereo not given) , give its measured max response value.
Return: -0.171

Enquiry: For the molecule O=C(Oc1ccccc1)c1ccccc1C(=O)Oc1ccccc1 , give its measured max response value.
Return: -2.84

Enquiry: For the molecule CCCCCCCC(=O)[O-].CCCCCCCC(=O)[O-].[Zn+2] , give its measured max response value.
Return: 9.04

Enquiry: For the molecule CN(C)c1ccc(C2(c3ccc(N(C)C)cc3)OC(=O)c3cc(N(C)C)ccc32)cc1 , give its measured max response value.
Return: -1.22

Enquiry: For the molecule CCCC/C=C/CCCCO , give its measured max response value.
Return: 5.87

Enquiry: For the molecule O=C(O)c1ccc(Cl)c(Cl)c1 , give its measured max response value.
Return: 2.99

Enquiry: For the molecule CNC(=O)c1ccccc1 , give its measured max response value.
Return: -8.54
